experiment: chemical recovery by SPE of plasma after PDMS sampling; higher = better extraction; conditions: pooled human plasma; extraction method: HLB SPE of plasma after PES; equilibration time (d): 3
Hi, to clarify the labels: satisfied covers chemical recovery by SPE of plasma from 30% upward, not satisfied covers anything below 30%.

For orientation, consider the following solved cases.
[
  {
    "compound": "C1=Cc2cccc3cccc1c23",
    "answerLabel": "not satisfied"
  },
  {
    "compound": "COc1cc([C@@H]2c3cc4c(cc3[C@@H](O[C@@H]3O[C@@H]5CO[C@@H](C)O[C@H]5[C@H](O)[C@H]3O)[C@H]3COC(=O)[C@H]23)OCO4)cc(OC)c1O [Etoposide]",
    "answerLabel": "satisfied"
  }
]

Query: Could you tell me if the measured chemical recovery by SPE of plasma of CC[N+](CC)(CC(=O)Nc1c(C)cccc1C)Cc1ccccc1 reaches 30% or more?
Result: satisfied

Query: Could you tell me if the measured chemical recovery by SPE of plasma of Cc1nc2ccccc2s1 reaches 30% or more?
Result: not satisfied

Query: // inclusive: chemical recovery by SPE of plasma at least 30%? input: Cc1cc(C2CCCCC2)n(O)c(=O)c1
Result: not satisfied

Query: Check the entry CC(C)N(C(=O)CCl)c1ccccc1 : does chemical recovery by SPE of plasma equal or exceed 30%?
Result: not satisfied

Query: Please check the record C=CCOC(Cn1ccnc1)c1ccc(Cl)cc1Cl (configuration not stated) and state if its chemical recovery by SPE of plasma is at or above 30%.
Result: not satisfied

* * *

Each entry below carries its recorded chemical recovery.
assay: chemical recovery from spiked human plasma; higher = better extraction; conditions: pooled human plasma; extraction method: PES+SPE (3 d PDMS equilibration then HLB SPE)
Field format: number, assumed %, no unit text.

[
  {
    "molecule": "CCCCCCN",
    "reportedValue": 3.2
  },
  {
    "molecule": "Cn1c(N)nc2ncc(-c3ccccc3)cc21 [2-Amino-1-methyl-6-phenylimidazo[4,5-b]pyridine (PhIP)]",
    "reportedValue": 38.9
  },
  {
    "molecule": "c1ccc2sc(N3CCOCC3)nc2c1",
    "reportedValue": 41.7
  }
]

Query: # input molecule: CC(C)Nc1nc(N)nc(Cl)n1 ; wanted: its chemical recovery
Result: 61.1

Query: Need chemical recovery of c1ccc2c(c1)[nH]c1cnccc12 , thanks.
Result: 25.1

* * *

assay: chemical recovery from spiked human plasma; higher = better extraction; details: pooled human plasma; extraction method: SPE only (HLB 96-well)
Label 1 when chemical recovery is at or above 40%; otherwise label -1.

Look over these answered cases.
[
  {
    "recordSmiles": "CC(C)(C)CC(C)(C)c1cc(-n2nc3ccccc3n2)c(O)c(C(C)(C)c2ccccc2)c1",
    "answerLabel": -1
  },
  {
    "recordSmiles": "CCN(CC)C(=O)c1cccc(C(=O)O)c1",
    "answerLabel": 1
  }
]

Let us examine a further case.
Query: Could you please find out whether CCN(CC)c1ccc2c(C)cc(=O)oc2c1 has chemical recovery that meets 40% or exceeds it?
Result: 1

* * *

test: chemical recovery into PDMS from spiked human plasma; higher = better extraction; conditions: pooled human plasma; extraction method: PES with PDMS; equilibration time (d): 3
property: chemical recovery into PDMS (%)
Form entry: value (%) — number only.

Below, each entry is followed by its recorded chemical recovery into PDMS result.
[
  {
    "compound": "COCN(COC)c1nc(N(COC)COC)nc(N(COC)COC)n1",
    "reportedValue": 45.8
  },
  {
    "compound": "c1ccc(-c2ccc(C(c3ccccc3)n3ccnc3)cc2)cc1 (centres undefined)",
    "reportedValue": 38.5
  },
  {
    "compound": "CC(C)N(C(=O)CCl)c1ccccc1",
    "reportedValue": 34.7
  },
  {
    "compound": "O=C(Nc1ccc(F)cc1)c1cccc(Oc2cccc(C(F)(F)F)c2)n1",
    "reportedValue": 54.1
  },
  {
    "compound": "Nc1cccc2ccccc12",
    "reportedValue": 0.33
  },
  {
    "compound": "Cl[C@H]1[C@H](Cl)[C@@H](Cl)[C@H](Cl)[C@@H](Cl)[C@@H]1Cl",
    "reportedValue": 80.5
  },
  {
    "compound": "CC(C)(Oc1ccc(CCNC(=O)c2ccc(Cl)cc2)cc1)C(=O)O [Bezafibrate]",
    "reportedValue": 0.00082
  },
  {
    "compound": "C[C@@H]1C[C@H]2[C@@H]3CCC4=CC(=O)C=C[C@]4(C)[C@@]3(Cl)[C@@H](O)C[C@]2(C)[C@@]1(OC(=O)c1ccco1)C(=O)CCl [Mometasone fuorate]",
    "reportedValue": 29.4
  }
]

Query: Which value of chemical recovery into PDMS has been reported for Cc1cccc(C)c1N(Cn1cccn1)C(=O)CCl in the records?
Result: 42.9

* * *

experiment: chemical recovery into PDMS from spiked human plasma; higher = better extraction; details: pooled human plasma; extraction method: PES with PDMS; equilibration time (d): 6
property: chemical recovery into PDMS (%)
Report only the number, with the unit % understood.

[
  {
    "molecule": "CO/N=C(/C1=NOCCO1)c1ccccc1Oc1ncnc(Oc2ccccc2Cl)c1F [Fluoxastrobin]",
    "unitSpec": "%",
    "chemical recovery into PDMS": 47.2
  },
  {
    "molecule": "C#C[C@]1(O)C=C[C@H]2[C@@H]3CCC4=CC(=O)CC[C@@H]4[C@H]3CC[C@@]21CC [Gestoden]",
    "unitSpec": "%",
    "chemical recovery into PDMS": 40.9
  },
  {
    "molecule": "COCCN(C(=O)C(=O)O)c1c(C)cccc1C [Dimethachlor OA]",
    "unitSpec": "%",
    "chemical recovery into PDMS": 0.00348
  },
  {
    "molecule": "Cc1ccc(S(N)(=O)=O)cc1 [p-Toluenesulfonamide]",
    "unitSpec": "%",
    "chemical recovery into PDMS": 2.08
  }
]

Query: I have this molecule here, O=S(=O)(O)NC1CCCCC1 [Cyclamate] , and I need its recorded chemical recovery into PDMS.
Result: 0.00679

* * *

assay: chemical recovery by SPE of plasma after PDMS sampling; higher = better extraction; conditions: pooled human plasma; extraction method: HLB SPE of plasma after PES; equilibration time (d): 1
property: chemical recovery by SPE of plasma (%)
Response body: numeric value in %, unit text excluded.

Known chemical recovery by SPE of plasma results, listed for orientation:
[
  {
    "compound": "O=C1Nc2ccc(Cl)cc2C(c2ccccc2)=NC1O (stereo not given) [Oxazepam]",
    "property": "chemical recovery by SPE of plasma",
    "reportedValue": 29.1
  },
  {
    "compound": "CCc1cccc(C)c1NC(=O)CS(=O)(=O)O [Metolachlor CGA 368-208]",
    "property": "chemical recovery by SPE of plasma",
    "reportedValue": 37.9
  },
  {
    "compound": "Clc1ccc(-c2cc(Cl)c(Cl)cc2Cl)cc1Cl [PCB118]",
    "property": "chemical recovery by SPE of plasma",
    "reportedValue": 2.43
  },
  {
    "compound": "CC[C@H]1OC(=O)C[C@@H](O)[C@H](C)[C@@H](O[C@@H]2O[C@H](C)[C@@H](O[C@H]3C[C@@](C)(O)[C@@H](O)[C@H](C)O3)[C@H](N(C)C)[C@H]2O)[C@@H](CC=O)C[C@@H](C)C(=O)/C=C/C(C)=C/[C@@H]1CO[C@@H]1O[C@H](C)[C@@H](O)[C@@H](OC)[C@H]1OC [TylosinCH4O]",
    "property": "chemical recovery by SPE of plasma",
    "reportedValue": 30.2
  }
]

Could you now look at the following compound, please?
Query: Reported chemical recovery by SPE of plasma, compound NC(=O)N1c2ccccc2C=Cc2ccccc21 [Carbamazepine] : ____
Result: 25.4

* * *

assay: chemical recovery from spiked human plasma; higher = better extraction; details: pooled human plasma; extraction method: SPE only (HLB 96-well), PES comparison experiment
property: chemical recovery (%)
Respond with the bare value in %.

The examples below pair each entry with its known result.
[
  {
    "recordSmiles": "O=c1c2ccccc2[nH]c2ccccc12",
    "unitSpec": "%",
    "reportedValue": 50.5
  },
  {
    "recordSmiles": "CCOP(=O)(OCC)OC(=CCl)c1ccc(Cl)cc1Cl",
    "unitSpec": "%",
    "reportedValue": 49.5
  },
  {
    "recordSmiles": "O=P(OC(CCl)CCl)(OC(CCl)CCl)OC(CCl)CCl",
    "unitSpec": "%",
    "reportedValue": 50.5
  },
  {
    "recordSmiles": "CCNc1nc(Cl)nc(NCC)n1",
    "unitSpec": "%",
    "reportedValue": 48.6
  },
  {
    "recordSmiles": "O=C1NCCN1Cc1ccc(Cl)nc1",
    "unitSpec": "%",
    "reportedValue": 51.1
  }
]

Query: # get_value(readout='chemical recovery', item= CN(C)C(=O)Nc1ccc(Oc2ccc(Cl)cc2)cc1 )
Result: 49.8

Query: Quick one: chemical recovery for CC(=O)Nc1ccc(S(=O)(=O)Nc2cc(C)on2)cc1 ?
Result: 51.5

Query: Fill in: chemical recovery of CC1CCN(CCCC(=O)c2ccc(F)cc2)CC1 is ___
Result: 48.8
